Test system: HT-29
Test: NCI tumour cell line growth inhibition, 48 h
Activity calls are given as the source filed them. Rule as the data show it: active = GI50 up to about 1.1 µM and inactive = higher.
endpointName: GI50

// O=C(O)C(CO)NC(=O)C1C(C(=O)O)C(c2ccccc2[N+](=O)[O-])C=C(c2ccco2)N1c1ccncc1 (stereo not drawn) : GI50 value = 1.81 µM (inactive)

// C=C[C@@H]1C[C@]2(C(=O)OC)Cc3nc4ccccc4nc3CC(C(=O)OC)=C2O1 : GI50 value = > 100 µM (inactive)

// O=C(c1cc(Cl)cc(Cl)c1)N(Cc1cccnc1)C(=S)N(Cc1cccnc1)C(=O)c1cc(Cl)cc(Cl)c1 : GI50 value = 31.9 µM (inactive)

// N#CC(NNC(=O)c1ccccc1O)c1ccc(O)cc1 (stereo not drawn) : GI50 value = 28.1 µM (inactive)

// Cn1c(=O)c2c(nc3n2CCCC(=O)N3CC(O)CCl)n(C)c1=O (stereo not drawn) : GI50 value = > 100 µM (inactive)

// CS(=O)(=O)c1ccc(/C=N/NC(N)=S)cc1 : GI50 value = > 100 µM (inactive)

// CCC1(c2c(F)c(F)c(N)c(F)c2F)CCC(=O)NC1=O (stereo not drawn) : GI50 value = > 100 µM (inactive)

// COc1cc2c(cc1OC)C13CCN4CC5CCOC6CC(=O)N2C1C6C5CC43 (stereo not drawn) : GI50 value = > 100 µM (inactive)

// O=C1Oc2ccccc2N/C1=C/C(=O)c1ccc(Cl)cc1 : GI50 value = > 100 µM (inactive)

// CC[C@@]1(O)C[C@H](OC2CC(N(C)C)C(OC3CC(O)C(OC4CC(O)C(O)C(C)O4)C(C)O3)C(C)O2)c2c(cc3c(c2O)C(=O)c2c(O)ccc(O)c2C3=O)[C@H]1C(=O)OC (stereo partly drawn) : GI50 value = 0.022 µM (active)

// CC(=O)OC1CC[C@@]2(C)C(=CC[C@@H]3[C@@H]2CC[C@]2(C)Nc4nn(S(C)(=O)=O)cc4C[C@@H]32)C1 (stereo partly drawn) : GI50 value = 11.6 µM (inactive)

// OC(CN(CCCl)CCCl)C(O)C(O)C(O)CN(CCCl)CCCl (stereo not drawn) : GI50 value = > 100 µM (inactive)

// C=CCN1C[C@@H](C)N([C@@H](c2ccccc2)c2ccc(C(=O)N(CC)CC)cc2)C[C@@H]1C : GI50 value = > 100 µM (inactive)
